Where do these numbers come from? They come from patent US7842469B2.

Each entry below carries its reported Wavelength (nm) peak.
Test: Bioluminescence emission spectra
Format: physicochemical
Settings: emission spectrum with native coelenterazine
Write the number in nm without appending the unit.

As a guide, the following entries are already answered.
>>> recorded_value("C124A/E195S/P196D: RLuc mutant C124A/E195S/P196D (protein) MASKVYDPEQRKRMITGPQWWARCKQMNVLDSFINYYDSEKHAENAVIFLHGNAASSYLWRHVVPHIEPVARCIIPDLIGMGKSGKSGNGSYRLLDHYKYLTAWFELLNLPKKIIFVGHDWGAALAFHYSYEHQDKIKAIVHAESVVDVIESWDEWPDIEEDIALIKSEEGEKMVLENNFFVETMLPSKIMRKLSDEEFAAYLEPFKEKGEVRRPTLSWPREIPLVKGGKPDVVQIVRNYNAYLRASDDLPKMFIESDPGFFSNAIVEGAKKFPNTEFVKVKGLHFSQEDAPDEMGKYIKSFVERVLKNEQ")
482
>>> recorded_value("C124A/A143M: RLuc mutant C124A/A143M (protein) MASKVYDPEQRKRMITGPQWWARCKQMNVLDSFINYYDSEKHAENAVIFLHGNAASSYLWRHVVPHIEPVARCIIPDLIGMGKSGKSGNGSYRLLDHYKYLTAWFELLNLPKKIIFVGHDWGAALAFHYSYEHQDKIKAIVHMESVVDVIESWDEWPDIEEDIALIKSEEGEKMVLENNFFVETMLPSKIMRKLEPEEFAAYLEPFKEKGEVRRPTLSWPREIPLVKGGKPDVVQIVRNYNAYLRASDDLPKMFIESDPGFFSNAIVEGAKKFPNTEFVKVKGLHFSQEDAPDEMGKYIKSFVERVLKNEQ")
480
>>> recorded_value("C124A/M295I: RLuc mutant C124A/M295I (protein) MASKVYDPEQRKRMITGPQWWARCKQMNVLDSFINYYDSEKHAENAVIFLHGNAASSYLWRHVVPHIEPVARCIIPDLIGMGKSGKSGNGSYRLLDHYKYLTAWFELLNLPKKIIFVGHDWGAALAFHYSYEHQDKIKAIVHAESVVDVIESWDEWPDIEEDIALIKSEEGEKMVLENNFFVETMLPSKIMRKLEPEEFAAYLEPFKEKGEVRRPTLSWPREIPLVKGGKPDVVQIVRNYNAYLRASDDLPKMFIESDPGFFSNAIVEGAKKFPNTEFVKVKGLHFSQEDAPDEIGKYIKSFVERVLKNEQ")
480
>>> recorded_value("C124A/F180A: RLuc mutant C124A/F180A (protein) MASKVYDPEQRKRMITGPQWWARCKQMNVLDSFINYYDSEKHAENAVIFLHGNAASSYLWRHVVPHIEPVARCIIPDLIGMGKSGKSGNGSYRLLDHYKYLTAWFELLNLPKKIIFVGHDWGAALAFHYSYEHQDKIKAIVHAESVVDVIESWDEWPDIEEDIALIKSEEGEKMVLENNAFVETMLPSKIMRKLEPEEFAAYLEPFKEKGEVRRPTLSWPREIPLVKGGKPDVVQIVRNYNAYLRASDDLPKMFIESDPGFFSNAIVEGAKKFPNTEFVKVKGLHFSQEDAPDEMGKYIKSFVERVLKNEQ")
488
>>> recorded_value("C124A/Q235A: RLuc mutant C124A/Q235A (protein) MASKVYDPEQRKRMITGPQWWARCKQMNVLDSFINYYDSEKHAENAVIFLHGNAASSYLWRHVVPHIEPVARCIIPDLIGMGKSGKSGNGSYRLLDHYKYLTAWFELLNLPKKIIFVGHDWGAALAFHYSYEHQDKIKAIVHAESVVDVIESWDEWPDIEEDIALIKSEEGEKMVLENNFFVETMLPSKIMRKLEPEEFAAYLEPFKEKGEVRRPTLSWPREIPLVKGGKPDVVAIVRNYNAYLRASDDLPKMFIESDPGFFSNAIVEGAKKFPNTEFVKVKGLHFSQEDAPDEMGKYIKSFVERVLKNEQ")
473

Report Wavelength (nm) peak for A54P/C124A: RLuc mutant A54P/C124A (protein) MASKVYDPEQRKRMITGPQWWARCKQMNVLDSFINYYDSEKHAENAVIFLHGNPASSYLWRHVVPHIEPVARCIIPDLIGMGKSGKSGNGSYRLLDHYKYLTAWFELLNLPKKIIFVGHDWGAALAFHYSYEHQDKIKAIVHAESVVDVIESWDEWPDIEEDIALIKSEEGEKMVLENNFFVETMLPSKIMRKLEPEEFAAYLEPFKEKGEVRRPTLSWPREIPLVKGGKPDVVQIVRNYNAYLRASDDLPKMFIESDPGFFSNAIVEGAKKFPNTEFVKVKGLHFSQEDAPDEMGKYIKSFVERVLKNEQ please.
468

Report Wavelength (nm) peak for C124A/S257G: RLuc mutant C124A/S257G (protein) MASKVYDPEQRKRMITGPQWWARCKQMNVLDSFINYYDSEKHAENAVIFLHGNAASSYLWRHVVPHIEPVARCIIPDLIGMGKSGKSGNGSYRLLDHYKYLTAWFELLNLPKKIIFVGHDWGAALAFHYSYEHQDKIKAIVHAESVVDVIESWDEWPDIEEDIALIKSEEGEKMVLENNFFVETMLPSKIMRKLEPEEFAAYLEPFKEKGEVRRPTLSWPREIPLVKGGKPDVVQIVRNYNAYLRASDDLPKMFIEGDPGFFSNAIVEGAKKFPNTEFVKVKGLHFSQEDAPDEMGKYIKSFVERVLKNEQ please.
477
